protocol details: Toxicity liver stage against HepG2, at 10uM
Type: cell-based
Design: test concentration 10 uM, cell line HepG2-A16-CD81EGFP
condition details: human, HepG2-A16-CD81EGFP cells; read-out: INHIBITION
Please respond with reported cytotoxicity at 10 µM for every item in the list.
Give bare numbers, in %.

Known cytotoxicity at 10 µM results, listed for orientation:
Fill in cytotoxicity at 10 µM for record "Cc1cc(CN2CC[C@H]3C[C@H](C(=O)Nc4cccnc4C)O[C@@H]3C2)no1"
-67

Fill in cytotoxicity at 10 µM for record "Nc1ncccc1C(=O)NCc1cccc(Br)c1"
42.6

Fill in cytotoxicity at 10 µM for record O=C(COC1CCCC1)N1CCCC1c1noc(C2CC2)n1 (configuration not stated)
11

Fill in cytotoxicity at 10 µM for record "O=C(c1cnccn1)N(CCO)Cc1cc(Br)ccc1F"
5.64

Answer for every listed entry: what is its cytotoxicity at 10 µM? The entries follow.
1. CC(=O)NCC(=O)N1CCCC2(CCC(=O)N(CCc3c[nH]cn3)C2)C1 (configuration not stated)
2. CCC(=O)c1ccc(Br)cc1NN1c2cc(Br)ccc2C(=O)C1(C)OC (configuration not stated)
3. CC(C)n1cccc1C(=O)N1CC[C@@H](NC(=O)c2ccccn2)[C@H](O)C1
4. Cc1nc(COC[C@H]2CCC[C@@]23CN(C(C)C)CCO3)cs1
5. O=C(NCC(O)c1ccccc1)Nc1cccs1 (configuration not stated)

2.77
78.6
2.35
-86.7
8.25

Answer for every listed entry: what is its cytotoxicity at 10 µM? The entries follow.
1. CCN1C(=O)C2(CCOCC2)c2cc(NC(=O)c3cnccn3)ccc21
2. COc1ccccc1C1(C(=O)N2CCCC(c3cc(C)[nH]n3)C2)CC1 (configuration not stated)
3. Cn1cccc1C(O)CNC(=O)COc1ccc(Cl)cc1Cl (configuration not stated)
4. CNC(=O)c1[nH]nc2ccc(I)cc12
5. Cc1nc2n(n1)CC(NCC(=O)Nc1cc(C)on1)CC2 (configuration not stated)

[-2.98, -16.7, -1.23, -61.9, -12.8]

Answer for every listed entry: what is its cytotoxicity at 10 µM? The entries follow.
1. CCOCC1CC2(CCN(C(=O)C3CC=CC3)CC2)CO1 (configuration not stated)
2. CNC(=O)COc1cccc(CNCc2c(C)noc2C)c1
3. CCOc1ccc(Cl)c(C(=O)N2CCCC(c3cc(C)[nH]n3)C2)n1 (configuration not stated)
4. O=C(Cc1ccc(F)cc1)NCc1ccc(C(=O)O)o1

[1.5, -10.3, 8.83, -8.06]

Answer for every listed entry: what is its cytotoxicity at 10 µM? The entries follow.
1. COC(=O)C1CCCCN1C(=O)c1cn(C/C=C/c2ccccc2)nn1 (configuration not stated)
2. O=C1CCCN1Cc1nnn2c1CN(c1cccnc1)CCC2
3. O=C(NCc1ccc(Br)cc1)C1(O)CCSCC1
4. COC[C@@]12CCO[C@@H]1CCN(C(=O)CCc1ccccc1Cl)C2

1: 3.98; 2: 3.48; 3: -3.59; 4: 7.69

Answer for every listed entry: what is its cytotoxicity at 10 µM? The entries follow.
1. CC(C)n1nc(O)c2c1NC(=O)CSC2c1cnn(C)c1 (configuration not stated)
2. Cc1nc(C)n(C2CCCN(C(=O)c3cnc[nH]3)C2)n1 (configuration not stated)
3. CC(C)[C@H](NC(=O)N1CCN(c2ccc(Cl)cc2)CC1)C(=O)NC1CC1

1: -5.28; 2: -5.04; 3: -7.39

Answer for every listed entry: what is its cytotoxicity at 10 µM? The entries follow.
1. Cc1cccc(CN2CCN(C(=O)c3cnc(C)[nH]c3=O)CC2)c1
2. O=C(N[C@@H]1CC[C@@H](N2CCCC2)[C@@H]1O)c1cc2ccccc2[nH]1
3. Cc1ncc(CNC2CC(=O)N(CCc3cccc(Cl)c3)C2)n1C (configuration not stated)

[-3.32, -4.92, -133]

Answer for every listed entry: what is its cytotoxicity at 10 µM? The entries follow.
1. CCCc1nccn1-c1ccc(C(C)O)cc1 (configuration not stated)
2. CCN(CC)S(=O)(=O)N(C)Cc1ccncc1
3. Cn1nnc(NCc2ccc(OCc3ccc(Cl)cc3)cc2)n1
4. CN(Cc1ccccc1)CC1CC2(CO1)CN(c1nncs1)C2 (configuration not stated)
5. Cc1cc(CN2CCN3C[C@H](c4ccccc4)[C@@H](CO)[C@H]3C2)on1

1. 5.38
2. 0.52
3. -2.56
4. 13.7
5. 7.66

Answer for every listed entry: what is its cytotoxicity at 10 µM? The entries follow.
1. CCCN1C(=O)CC(N2CCN(c3ccc(F)cc3)CC2)C1=O (configuration not stated)
2. O=C(c1ccc(F)cc1)N1C[C@H]2CCC[C@@]2(COCc2ccccn2)C1
3. CC1CCN(CCCNS(=O)(=O)Cc2ccccc2F)CC1

1. -3.03
2. 2.06
3. -8.79
